Assay: Chemical stability (hydrolysis) of acyclovir esters in aqueous buffer, unchanged ester quantified by HPLC
Format: physicochemical
Conditions used: pH 7.4, 37°C
Observed property: chemical stability at pH 7.4 (in words)

# Compound, Observed property, Result
rows = [
    ("CC(C)(C)OC(=O)NCc1nc(C(=O)OCCOCn2cnc3c(=O)[nH]c(N)nc32)cs1", "chemical stability at pH 7.4 (in words)", "lower stability"),
    ("CC(C)CC(NC(=O)OC(C)(C)C)c1nc(C(=O)OCCOCn2cnc3c(=O)[nH]c(N)nc32)cs1 (stereo not shown)", "chemical stability at pH 7.4 (in words)", "lower stability"),
]
